These data points were gathered from the array DNA melting data of Ke et al. (doi:10.1101/2024.01.08.574731).

# Experiment Notes: folding enthalpy; higher = less favourable; fluorescence melt of hairpins on a sequencing array, two-state fit
# Condition Label: sodium 0.088 M
Outcome Measure: folding enthalpy (kcal/mol)
Answer with a number only, understood to be in kcal/mol.

- Query Sequence: "GGACCTGAAAAGGTCC ((((((....))))))"
  Outcome Measure: "folding enthalpy"
  Unit: "kcal/mol"
  Value Observed: -34.4
- Query Sequence: "GCGATTACGAAAGTACGC (((..(((....))))))"
  Outcome Measure: "folding enthalpy"
  Unit: "kcal/mol"
  Value Observed: -26
- Query Sequence: "GCGACACTCGC ((((...))))"
  Outcome Measure: "folding enthalpy"
  Unit: "kcal/mol"
  Value Observed: -18.2
- Query Sequence: "GAGATTGGAAACAATTTC ((.((((....)))).))"
  Outcome Measure: "folding enthalpy"
  Unit: "kcal/mol"
  Value Observed: -17.9

Prompt: Entry under review: GCGACGAGTCGC ((((....)))) . Reported folding enthalpy?
Response: -36.6

Prompt: Entry under review: GGACCCCGAAAGGGTTCC (((.(((....))).))) . Reported folding enthalpy?
Response: -23.2

Prompt: Entry under review: GACCCCGGAAACGGGACC (..((((....))))..) . Reported folding enthalpy?
Response: -8.3

Prompt: Entry under review: GTCAGAGGAAACTCTGAC (((((((....))))))) . Reported folding enthalpy?
Response: -37.9

Prompt: Entry under review: GGCCTGGCGAAAGCCGCC (((..(((....)))))) . Reported folding enthalpy?
Response: -15.5

Prompt: Entry under review: GCTTCGGGAAACCGAGGC ((.((((....)))).)) . Reported folding enthalpy?
Response: -42.3

Prompt: Entry under review: GTTTCCGAAAGGATAAAC ((((((....)))..))) . Reported folding enthalpy?
Response: -15.8

Prompt: Entry under review: GCAATCGAAAGATGATGC ((((((....)))..))) . Reported folding enthalpy?
Response: -18.6
